# target desc: Human immunodeficiency virus type 1 reverse transcriptase (Human immunodeficiency virus 1, UniProt Q72547)
pIC50: −log10 of the molar value.
readout kind: pIC50

## Input Quick check: pIC50 of O=C(O)c1ccc2c(c1)nc(-c1ccc(OCc3cc(N4CCCC4=O)ccc3-c3ccc(Cl)cc3)cc1F)n2C1CCCCC1 ?
## Output < 5.00

* * *

# experiment: Therapeutic index, CC50 for viability of Huh5-2 cells/EC50 for inhibition of HCV subgenomic RNA replication
# Assay type: cell-based, Huh-5-2
# conditions: human, read-out: Ratio CC50/EC50
selectivity ratio below 70 gives Criterion not met; selectivity ratio at or above it gives Criterion met.

## Input I'd appreciate it if you could say whether CC(=O)N(c1ccc(-c2ccc(Cl)cc2)c(COc2ccc(-c3nc4cc(C(=O)O)ccc4n3C3CCCCC3)c(F)c2)c1)C(C)C has selectivity ratio at least equal to 70.
## Output Criterion met

## Input Param item: O=C(O)c1ccc2c(c1)nc(-c1ccc(OCc3cc(C(=O)N4CCCCC4)ccc3-c3ccc(Cl)cc3)cc1F)n2C1CCCCC1
## Output Criterion met

## Input What about N#Cc1ccc(-c2ccc(Cl)cc2)c(COc2ccc(-c3nc4cc(C(=O)O)ccc4n3C3CCCCC3)cc2)c1 ?
## Output Criterion not met

## Input Proceed to O=C(O)c1ccc2c(c1)nc(-c1ccc(OCc3cc(C(=O)N4CCOCC4)ccc3-c3ccc(Cl)cc3)cc1F)n2C1CCCCC1
## Output Criterion met

## Input Then this molecule: O=C(O)c1ccc2c(c1)nc(-c1ccc(OCc3ncccc3-c3ccc(Cl)cc3)cc1)n2C1CCCCC1
## Output Criterion not met

## Input Same lookup for NC(=O)c1ccc(-c2ccc(Cl)cc2)c(COc2ccc(-c3nc4cc(C(=O)O)ccc4n3C3CCCCC3)cc2)c1 , please.
## Output Criterion not met

* * *

# experiment: Apparent permeability in Caco-2 cells
# Type: ADME, cell-based
# conditions: human
readout kind: Papp
State the value with its unit after it.

## Input Any idea what Papp was measured for O=C(O)c1ccc(-c2ccc(Cl)cc2COc2ccc(-c3nc4cc(C(=O)O)ccc4n3C3CCCCC3)cc2)cc1 ?
## Output 23.4 ×10⁻⁶ cm/s

* * *

# target desc: RNA-directed RNA polymerase (Hepacivirus hominis, UniProt O39930)
# Sequence (O39930 whole entry): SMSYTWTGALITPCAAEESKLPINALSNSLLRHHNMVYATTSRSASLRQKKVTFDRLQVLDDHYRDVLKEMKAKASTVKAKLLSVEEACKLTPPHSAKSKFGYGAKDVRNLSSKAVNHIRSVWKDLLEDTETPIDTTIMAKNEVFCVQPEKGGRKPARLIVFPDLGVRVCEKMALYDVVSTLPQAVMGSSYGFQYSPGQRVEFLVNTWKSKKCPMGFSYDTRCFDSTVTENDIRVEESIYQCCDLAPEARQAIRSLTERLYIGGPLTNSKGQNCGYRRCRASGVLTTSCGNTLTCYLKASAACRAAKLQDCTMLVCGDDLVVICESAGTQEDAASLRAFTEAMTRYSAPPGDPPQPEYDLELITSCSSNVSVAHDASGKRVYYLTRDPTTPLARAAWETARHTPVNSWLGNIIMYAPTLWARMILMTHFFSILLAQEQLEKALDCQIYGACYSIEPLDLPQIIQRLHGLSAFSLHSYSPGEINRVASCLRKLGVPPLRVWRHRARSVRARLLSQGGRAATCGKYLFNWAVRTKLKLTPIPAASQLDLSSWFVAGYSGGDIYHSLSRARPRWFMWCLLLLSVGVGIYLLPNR
# experiment: Inhibition of HCV 2a NS5B RNA dependent RNA polymerase
# Parameters: species or system Hepatitis C virus subtype 2a
readout kind: pIC50
Just so you know, pIC50 here is -log10 of the concentration in molar units; reply with that number alone.

## Input State the recorded pIC50 for this entry: O=C(O)c1ccc2c(c1)nc(-c1ccc(OCc3cc(N4CCCC4=O)ccc3-c3ccc(Cl)cc3)cc1F)n2C1CCCCC1
## Output 5.19

* * *

# Tested on: Hepatitis C virus
# experiment: Inhibition of HCV subgenomic RNA replication in Huh5-2 cells after 48 hrs by replicon assay
# Assay type: functional, organism-based, Hepacivirus hominis
# conditions: Huh-5-2, 48 h
# note: boundary value 500 nM maps to Criterion not met; EC50 below it maps to Criterion met

## Input API: query returns whether the molecule falls strictly under 500 nM in EC50. Query: CCCNC(=O)c1ccc(-c2ccc(Cl)cc2)c(COc2ccc(-c3nc4cc(C(=O)O)ccc4n3C3CCCCC3)c(F)c2)c1
## Output Criterion met

## Input Item: CC(C)C(=O)N(C)c1ccc(-c2ccc(Cl)cc2)c(COc2ccc(-c3nc4cc(C(=O)O)ccc4n3C3CCCCC3)c(F)c2)c1
## Output Criterion met

## Input Try O=C(O)c1ccc2c(c1)nc(-c1ccc(OCc3cc(N4CCCC4=O)ccc3-c3ccc(Cl)cc3)cc1F)n2C1CCCCC1 next.
## Output Criterion met

## Input Try the molecule CC(=O)c1ccc(-c2ccc(Cl)cc2)c(COc2ccc(-c3nc4cc(C(=O)O)ccc4n3C3CCCCC3)cc2)c1
## Output Criterion met

## Input Could you do the same for NC(=O)c1ccc(-c2ccc(Cl)cc2)c(COc2ccc(-c3nc4cc(C(=O)O)ccc4n3C3CCCCC3)cc2)c1 , please?
## Output Criterion not met

## Input Would you kindly repeat that for CC(=O)Nc1ccc(-c2ccc(Cl)cc2)c(COc2ccc(-c3nc4cc(C(=O)O)ccc4n3C3CCCCC3)c(F)c2)c1 ?
## Output Criterion met

## Input Same question, COc1ccc(-c2ccc(Cl)cc2)c(COc2ccc(-c3nc4cc(C(=O)O)ccc4n3C3CCCCC3)cc2)c1 this time
## Output Criterion not met

* * *

# experiment: Plasma concentration in rat at 30 mg/kg, po after 2 hrs
# Format: ADME, organism-based
# Parameters: dose 30 mg/kg, route oral
Please use Fulfilled for concentration at 2 h under 700 nM and Not fulfilled for everything else, ties included.

## Input Please state whether concentration at 2 h is below 700 nM for CC(=O)N(C)c1ccc(-c2ccc(Cl)cc2)c(COc2ccc(-c3nc4cc(C(=O)O)ccc4n3C3CCCCC3)c(F)c2)c1
## Output Not fulfilled

## Input Now give it for O=C(O)c1ccc2c(c1)nc(-c1ccc(OCc3cc(N4CCCC4=O)ccc3-c3ccc(Cl)cc3)cc1F)n2C1CCCCC1 too.
## Output Not fulfilled

## Input Likewise for CC(C)NC(=O)c1ccc(-c2ccc(Cl)cc2)c(COc2ccc(-c3nc4cc(C(=O)O)ccc4n3C3CCCCC3)c(F)c2)c1 ?
## Output Fulfilled

## Input Now consider CN(C)C(=O)c1ccc(-c2ccc(Cl)cc2)c(COc2ccc(-c3nc4cc(C(=O)O)ccc4n3C3CCCCC3)c(F)c2)c1 and answer again.
## Output Not fulfilled

## Input Check CCCNC(=O)c1ccc(-c2ccc(Cl)cc2)c(COc2ccc(-c3nc4cc(C(=O)O)ccc4n3C3CCCCC3)c(F)c2)c1 too.
## Output Fulfilled

## Input Further, for CCN(C(C)=O)c1ccc(-c2ccc(Cl)cc2)c(COc2ccc(-c3nc4cc(C(=O)O)ccc4n3C3CCCCC3)c(F)c2)c1 ?
## Output Not fulfilled

* * *

# experiment: Therapeutic index, CC50 for viability of Huh5-2 cells/EC50 for inhibition of HCV subgenomic RNA replication
# Format: cell-based, Huh-5-2
# conditions: human, read-out: Ratio CC50/EC50
Label key: Satisfied means selectivity ratio under 30; Not satisfied means selectivity ratio of 30 or more.

## Input Does the reported selectivity ratio of O=C(O)c1ccc2c(c1)nc(-c1ccc(OCc3cc(C(=O)NCCO)ccc3-c3ccc(Cl)cc3)cc1F)n2C1CCCCC1 stay below 30?
## Output Satisfied

## Input Consider next the compound Cc1nc(COc2ccc(-c3nc4cc(C(=O)O)ccc4n3C3CCCCC3)cc2)c(-c2ccc(Cl)cc2)s1 in the same way.
## Output Satisfied

## Input For CN(C)C(=O)c1ccc(-c2ccc(Cl)cc2)c(COc2ccc(-c3nc4cc(C(=O)O)ccc4n3C3CCCCC3)cc2)c1 then?
## Output Not satisfied

## Input Same thing, different compound: CC(=O)Nc1ccc(-c2ccc(Cl)cc2)c(COc2ccc(-c3nc4cc(C(=O)O)ccc4n3C3CCCCC3)c(F)c2)c1
## Output Not satisfied

## Input What do we get for CN(C)S(=O)(=O)c1ccc(-c2ccc(Cl)cc2)c(COc2ccc(-c3nc4cc(C(=O)O)ccc4n3C3CCCCC3)cc2)c1 ?
## Output Not satisfied

## Input Let us now turn to CN(C)C(=O)Nc1ccc(-c2ccc(Cl)cc2)c(COc2ccc(-c3nc4cc(C(=O)O)ccc4n3C3CCCCC3)c(F)c2)c1
## Output Not satisfied

## Input Further, for CC(C)C(=O)N(C)c1ccc(-c2ccc(Cl)cc2)c(COc2ccc(-c3nc4cc(C(=O)O)ccc4n3C3CCCCC3)c(F)c2)c1 ?
## Output Not satisfied

## Input Proceed to O=C(O)c1ccc2c(c1)nc(-c1ccc(OCc3ccccc3-c3ccc(Cl)cc3)cc1)n2C1CCCCC1
## Output Satisfied

* * *

# Tested on: Hepatitis C virus
# experiment: Inhibition of HCV subgenomic RNA replication in Huh5-2 cells after 48 hrs by replicon assay
# Assay type: functional, organism-based, Hepacivirus hominis
# conditions: Huh-5-2, 48 h
readout kind: EC50 (nM)
# value in nM; strip the unit string

## Input Report EC50 for N#Cc1ccc(-c2ccc(Cl)cc2)c(COc2ccc(-c3nc4cc(C(=O)O)ccc4n3C3CCCCC3)cc2)c1 please.
## Output 820

## Input Now give it for O=C(O)c1ccc2c(c1)nc(-c1ccc(OCc3cc(C(=O)N4CCOCC4)ccc3-c3ccc(Cl)cc3)cc1F)n2C1CCCCC1 too.
## Output 280

## Input Now consider CN(C)c1ccc(-c2ccc(Cl)cc2)c(COc2ccc(-c3nc4cc(C(=O)O)ccc4n3C3CCCCC3)cc2)c1 and answer again.
## Output 2600

## Input Query CCN(C(C)=O)c1ccc(-c2ccc(Cl)cc2)c(COc2ccc(-c3nc4cc(C(=O)O)ccc4n3C3CCCCC3)c(F)c2)c1 next
## Output 140

## Input Again, but for NS(=O)(=O)c1ccc(-c2ccc(Cl)cc2)c(COc2ccc(-c3nc4cc(C(=O)O)ccc4n3C3CCCCC3)cc2)c1
## Output 1500

## Input Entry to check: CN(C)C(=O)c1ccc(-c2ccc(Cl)cc2)c(COc2ccc(-c3nc4cc(C(=O)O)ccc4n3C3CCCCC3)cc2)c1
## Output 370

## Input Proceed to CN(C)S(=O)(=O)c1ccc(-c2ccc(Cl)cc2)c(COc2ccc(-c3nc4cc(C(=O)O)ccc4n3C3CCCCC3)cc2)c1
## Output 660

## Input Would you kindly repeat that for CNC(=O)c1ccc(-c2ccc(Cl)cc2)c(COc2ccc(-c3nc4cc(C(=O)O)ccc4n3C3CCCCC3)c(F)c2)c1 ?
## Output 360

## Input Further, for O=C(O)c1ccc2c(c1)nc(-c1ccc(OCc3cccnc3-c3ccc(Cl)cc3)cc1)n2C1CCCCC1 ?
## Output 1200

## Input Now consider NC(=O)c1ccc(-c2ccc(Cl)cc2COc2ccc(-c3nc4cc(C(=O)O)ccc4n3C3CCCCC3)cc2)cc1 and answer again.
## Output 2500

## Input Similarly, O=C(O)c1ccc2c(c1)nc(-c1ccc(OCc3cc(C(=O)N4CCC(O)CC4)ccc3-c3ccc(Cl)cc3)cc1F)n2C1CCCCC1 ?
## Output 380

## Input Query CC(=O)N(C)c1ccc(-c2ccc(Cl)cc2)c(COc2ccc(-c3nc4cc(C(=O)O)ccc4n3C3CCCCC3)c(F)c2)c1 next
## Output 150

## Input And for Cc1ccc(-c2ccc(Cl)cc2COc2ccc(-c3nc4cc(C(=O)O)ccc4n3C3CCCCC3)cc2)cc1 ?
## Output 3400
